Hello, the source for this data is paper PMC9606955, in case you need it.

System: C. auris Ca 17
Assay: MIC, CLSI M27 broth microdilution
Format: cell-based, Candida auris
Conditions: C. auris Ca 17; antifungal drugs
test.readout: MIC Range (µg/mL)
State the answer as a number, implicitly in µg/mL.

Note down MIC Range recorded for CC[C@H](C)C[C@H](C)CCCCCCCCC(=O)N[C@H]1C[C@@H](O)[C@@H](NCCN)NC(=O)[C@@H]2[C@@H](O)CCN2C(=O)[C@H]([C@H](O)CCN)NC(=O)[C@H]([C@H](O)[C@@H](O)c2ccc(O)cc2)NC(=O)[C@@H]2C[C@@H](O)CN2C(=O)[C@H]([C@@H](C)O)NC1=O [CSF, caspofungin]
0.5

Note down MIC Range recorded for OC(Cn1cncn1)(Cn1cncn1)c1ccc(F)cc1F [FLC, fluconazole]
32

###

Test system: C. parapsilosis Synlab 406
Assay: MIC, CLSI M27 broth microdilution
Assay type: cell-based, Candida parapsilosis
Details: C. parapsilosis Synlab 406; antifungal drugs
test.readout: MIC Range

Note down MIC Range recorded for C[C@@H]1[C@H](O)[C@@H](C)/C=C/C=C/C=C/C=C/C=C/C=C/C=C/[C@H](O[C@@H]2O[C@H](C)[C@@H](O)[C@H](N)[C@@H]2O)C[C@@H]2O[C@](O)(C[C@@H](O)C[C@@H](O)[C@H](O)CC[C@@H](O)C[C@@H](O)CC(=O)O[C@H]1C)C[C@H](O)[C@H]2C(=O)O
0.06 to 0.25 µg/mL

Note down MIC Range recorded for OC(Cn1cncn1)(Cn1cncn1)c1ccc(F)cc1F
8 to 16 µg/mL

Note down MIC Range recorded for CC[C@H](C)C[C@H](C)CCCCCCCCC(=O)N[C@H]1C[C@@H](O)[C@@H](NCCN)NC(=O)[C@@H]2[C@@H](O)CCN2C(=O)[C@H]([C@H](O)CCN)NC(=O)[C@H]([C@H](O)[C@@H](O)c2ccc(O)cc2)NC(=O)[C@@H]2C[C@@H](O)CN2C(=O)[C@H]([C@@H](C)O)NC1=O
2 µg/mL

Note down MIC Range recorded for CCC(C)n1ncn(-c2ccc(N3CCN(c4ccc(OCC5COC(Cn6cncn6)(c6ccc(Cl)cc6Cl)O5)cc4)CC3)cc2)c1=O (stereo not shown)
0.5 to 1 µg/mL

###

System: C. auris Ca 45
Assay: MIC, CLSI M27 broth microdilution
Type: cell-based, Candida auris
Details: C. auris Ca 45; antifungal drugs
test.readout: MIC Range (µg/mL)
State the answer as a number, implicitly in µg/mL.

Note down MIC Range recorded for CC[C@H](C)C[C@H](C)CCCCCCCCC(=O)N[C@H]1C[C@@H](O)[C@@H](NCCN)NC(=O)[C@@H]2[C@@H](O)CCN2C(=O)[C@H]([C@H](O)CCN)NC(=O)[C@H]([C@H](O)[C@@H](O)c2ccc(O)cc2)NC(=O)[C@@H]2C[C@@H](O)CN2C(=O)[C@H]([C@@H](C)O)NC1=O [CSF, caspofungin]
0.5

Note down MIC Range recorded for OC(Cn1cncn1)(Cn1cncn1)c1ccc(F)cc1F [FLC, fluconazole]
2

###

What MIC was measured for each of the following?
Tested on: C. glabrata LMDM 34
State the answer as a number, implicitly in µg/mL.

Note down MIC recorded for CCC(C)n1ncn(-c2ccc(N3CCN(c4ccc(OCC5COC(Cn6cncn6)(c6ccc(Cl)cc6Cl)O5)cc4)CC3)cc2)c1=O (stereo not drawn)
1

Note down MIC recorded for C[C@@H]1[C@H](O)[C@@H](C)/C=C/C=C/C=C/C=C/C=C/C=C/C=C/[C@H](O[C@@H]2O[C@H](C)[C@@H](O)[C@H](N)[C@@H]2O)C[C@@H]2O[C@](O)(C[C@@H](O)C[C@@H](O)[C@H](O)CC[C@@H](O)C[C@@H](O)CC(=O)O[C@H]1C)C[C@H](O)[C@H]2C(=O)O
0.06

Note down MIC recorded for OC(Cn1cncn1)(Cn1cncn1)c1ccc(F)cc1F
2.8
